Entries and their pIC50 values follow.
- target.of.assay: Human CDK12 wt/CycK (Homo sapiens (Human), UniProt Q9NYV4)
- Sequence (Q9NYV4 whole entry): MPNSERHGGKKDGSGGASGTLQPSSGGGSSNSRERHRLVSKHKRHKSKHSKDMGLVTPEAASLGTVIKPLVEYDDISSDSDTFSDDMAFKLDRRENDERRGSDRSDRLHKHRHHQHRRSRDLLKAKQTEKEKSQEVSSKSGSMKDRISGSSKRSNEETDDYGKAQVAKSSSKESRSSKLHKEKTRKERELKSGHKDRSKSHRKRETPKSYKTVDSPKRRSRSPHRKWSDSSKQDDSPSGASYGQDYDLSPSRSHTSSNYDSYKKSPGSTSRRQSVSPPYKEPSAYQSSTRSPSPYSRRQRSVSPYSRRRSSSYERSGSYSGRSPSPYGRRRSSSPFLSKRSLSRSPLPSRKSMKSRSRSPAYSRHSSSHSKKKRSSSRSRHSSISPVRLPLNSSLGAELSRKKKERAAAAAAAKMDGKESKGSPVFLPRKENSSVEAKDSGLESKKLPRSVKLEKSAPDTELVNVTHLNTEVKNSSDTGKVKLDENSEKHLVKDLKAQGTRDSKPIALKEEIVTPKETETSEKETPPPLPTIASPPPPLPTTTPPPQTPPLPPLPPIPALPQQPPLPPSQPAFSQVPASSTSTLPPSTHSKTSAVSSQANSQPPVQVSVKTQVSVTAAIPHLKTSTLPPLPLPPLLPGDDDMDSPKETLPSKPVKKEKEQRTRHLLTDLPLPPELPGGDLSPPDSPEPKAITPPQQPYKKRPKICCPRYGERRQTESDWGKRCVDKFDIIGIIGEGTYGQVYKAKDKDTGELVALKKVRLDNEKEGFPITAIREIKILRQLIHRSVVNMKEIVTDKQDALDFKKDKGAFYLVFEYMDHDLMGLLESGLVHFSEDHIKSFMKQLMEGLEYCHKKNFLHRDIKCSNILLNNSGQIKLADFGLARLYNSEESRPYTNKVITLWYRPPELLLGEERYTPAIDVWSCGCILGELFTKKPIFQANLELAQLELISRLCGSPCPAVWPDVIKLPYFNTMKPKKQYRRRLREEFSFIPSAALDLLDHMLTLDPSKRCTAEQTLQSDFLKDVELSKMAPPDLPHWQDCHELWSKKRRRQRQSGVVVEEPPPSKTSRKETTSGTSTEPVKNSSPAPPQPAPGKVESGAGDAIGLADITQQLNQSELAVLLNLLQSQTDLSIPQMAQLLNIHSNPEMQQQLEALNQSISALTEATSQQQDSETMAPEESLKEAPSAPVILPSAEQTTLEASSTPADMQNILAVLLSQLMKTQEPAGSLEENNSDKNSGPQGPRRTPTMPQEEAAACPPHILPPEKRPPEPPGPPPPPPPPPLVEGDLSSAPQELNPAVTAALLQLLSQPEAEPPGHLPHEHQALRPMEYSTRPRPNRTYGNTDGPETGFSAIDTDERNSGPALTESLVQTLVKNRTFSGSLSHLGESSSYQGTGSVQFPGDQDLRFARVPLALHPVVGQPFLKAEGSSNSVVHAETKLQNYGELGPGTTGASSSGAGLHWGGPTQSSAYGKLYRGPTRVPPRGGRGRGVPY
- Sequence (O75909 whole entry partner): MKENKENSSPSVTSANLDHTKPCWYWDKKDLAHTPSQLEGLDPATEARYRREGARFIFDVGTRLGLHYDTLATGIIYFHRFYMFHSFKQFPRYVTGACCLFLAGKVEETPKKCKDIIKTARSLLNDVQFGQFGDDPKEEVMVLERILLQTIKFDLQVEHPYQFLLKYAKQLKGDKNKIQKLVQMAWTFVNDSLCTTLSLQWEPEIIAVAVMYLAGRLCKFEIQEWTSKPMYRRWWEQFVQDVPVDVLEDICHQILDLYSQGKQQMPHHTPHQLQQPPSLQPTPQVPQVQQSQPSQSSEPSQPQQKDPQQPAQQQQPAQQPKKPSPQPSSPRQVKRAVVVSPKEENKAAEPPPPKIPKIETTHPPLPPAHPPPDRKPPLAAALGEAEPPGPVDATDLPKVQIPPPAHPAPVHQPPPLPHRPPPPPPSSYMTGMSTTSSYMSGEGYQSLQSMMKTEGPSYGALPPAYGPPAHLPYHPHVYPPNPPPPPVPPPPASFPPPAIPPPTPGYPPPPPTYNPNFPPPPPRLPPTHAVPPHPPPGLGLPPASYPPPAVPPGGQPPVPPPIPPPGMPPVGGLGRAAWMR
- protocol.text: Radiometric protein kinase assay (33PanQinase Activity Assay), CDK12
- Assay type: biochemical
- assay.conditions: ATP 0.3 μM; read-out: CDK12 IC50
pIC50: −log10 of the molar value.
readout: pIC50

In [3]: df
Out[3]:
                                   molecule                           target_of_assay  readout  quantitative_readout
0  F[C@@H]1CNC[C@H]1Oc1cc(NCc2ccc(-c3ccccn3)cc2)n2ncc(C3CC3)c2n1 [PPA-073]  Human CDK12 wt/CycK (Homo sapiens (Human), UniProt Q9NYV4)    pIC50                  7.48
1  Clc1cnn2c(NCc3ccc(-c4ccccn4)cc3)cc(N[C@H]3CCCNC3)nc12 [PPA-093]  Human CDK12 wt/CycK (Homo sapiens (Human), UniProt Q9NYV4)    pIC50                  7.51
2  c1ccc(-c2ccc(CNc3cc(O[C@H]4CCCNC4)nc4c(C5CC5)cnn34)cc2)nc1 [PPA-064]  Human CDK12 wt/CycK (Homo sapiens (Human), UniProt Q9NYV4)    pIC50                  7.74
3  O[C@H]1CNCC[C@@H]1CNc1cc(NCc2ccc(-c3ncccc3OC(F)(F)F)cc2)n2ncc(C3CC3)c2n1 [PPA-028]  Human CDK12 wt/CycK (Homo sapiens (Human), UniProt Q9NYV4)    pIC50                  6.62
4  O[C@H]1CNCC[C@@H]1CNc1cc(NCc2ccc(-c3ccccc3)cc2)n2ncc(C3CC3)c2n1 [PPA-059]  Human CDK12 wt/CycK (Homo sapiens (Human), UniProt Q9NYV4)    pIC50                  6.80
5  O[C@H]1CNCC[C@@H]1CNc1cc(NCc2ccc(-c3ccccn3)cc2F)n2ncc(Cl)c2n1 [PPA-074]  Human CDK12 wt/CycK (Homo sapiens (Human), UniProt Q9NYV4)    pIC50                  7.64
6  CC(C)c1cnn2c(NCc3ccc(-c4ncccn4)cc3)cc(NC[C@H]3CCNC[C@@H]3O)nc12 [PPA-007]  Human CDK12 wt/CycK (Homo sapiens (Human), UniProt Q9NYV4)    pIC50                  7.29
7  c1ccc(-c2ccc(CNc3cc(OCC4CNC4)nc4c(C5CC5)cnn34)cc2)nc1 [PPA-055]  Human CDK12 wt/CycK (Homo sapiens (Human), UniProt Q9NYV4)    pIC50                  6.87
